Reported pEC50 values for the following binders.
Biological target: T1, monkey MSLN full-length protein (NCBI: XP_028696439.1) expressed on HEK293T-monkey MSLN cells (monkey)
T1 construct: Whole encoded precursor
T1 chain: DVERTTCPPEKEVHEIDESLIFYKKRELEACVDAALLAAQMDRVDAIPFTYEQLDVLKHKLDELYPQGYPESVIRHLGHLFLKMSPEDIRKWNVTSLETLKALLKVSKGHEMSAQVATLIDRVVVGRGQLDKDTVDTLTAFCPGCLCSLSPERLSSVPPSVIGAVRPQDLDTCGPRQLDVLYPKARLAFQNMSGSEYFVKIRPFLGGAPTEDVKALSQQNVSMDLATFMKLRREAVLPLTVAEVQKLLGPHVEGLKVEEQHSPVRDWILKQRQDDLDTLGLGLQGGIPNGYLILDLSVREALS
Experiment: FACS on HEK293T-monkey MSLN cells;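 further: flow cytometry binding of chimeric antibodies to the cells, with a 2 h incubation on ice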
Please note pEC50 is a logarithmic value: minus log10 of concentration in mol/L. Answer with that number alone.

* S009-F7.23.19 (antibody, human IgG1, kappa, V domains shown, human-murine chimeric antibody, human IgG1/kappa constant regions) VH: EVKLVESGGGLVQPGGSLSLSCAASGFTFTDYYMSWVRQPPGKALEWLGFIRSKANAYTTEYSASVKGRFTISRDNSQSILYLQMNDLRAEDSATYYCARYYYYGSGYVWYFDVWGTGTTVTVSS VL: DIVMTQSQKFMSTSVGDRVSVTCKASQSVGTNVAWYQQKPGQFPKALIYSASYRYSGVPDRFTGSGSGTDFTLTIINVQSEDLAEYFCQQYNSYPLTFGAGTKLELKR | 9.89
* S009-F7.30.5 (antibody, human IgG1, kappa, V domains shown, human-murine chimeric antibody, human IgG1/kappa constant regions) VH: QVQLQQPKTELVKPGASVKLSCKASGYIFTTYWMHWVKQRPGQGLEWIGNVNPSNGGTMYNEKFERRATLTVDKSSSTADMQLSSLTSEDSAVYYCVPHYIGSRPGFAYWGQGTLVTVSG VL: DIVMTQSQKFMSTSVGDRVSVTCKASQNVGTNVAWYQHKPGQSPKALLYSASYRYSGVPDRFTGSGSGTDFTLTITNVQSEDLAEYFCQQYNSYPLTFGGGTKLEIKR | 9.47

// below: pEC50 requested for another binder
Return reported pEC50; argument: S009-F7.12.13 (antibody, human IgG1, kappa, V domains shown, human-murine chimeric antibody, human IgG1/kappa constant regions) VH: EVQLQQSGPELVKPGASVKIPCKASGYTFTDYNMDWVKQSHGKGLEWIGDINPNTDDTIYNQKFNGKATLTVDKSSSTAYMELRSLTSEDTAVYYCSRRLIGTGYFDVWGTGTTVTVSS VL: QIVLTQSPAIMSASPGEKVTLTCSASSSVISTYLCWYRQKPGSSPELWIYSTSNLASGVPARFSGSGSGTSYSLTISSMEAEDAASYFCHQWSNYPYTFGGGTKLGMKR
8.20
